Where do the numbers come from? From patent US8685987B2.

TESTED SYSTEM: hSK1 channels (Homo sapiens, UniProt Q92952)
Construct: expressed in transfected cells; host or cells: HEK293
MEASUREMENT NOTES: Whole-cell patch-clamp recording of SK current in HEK293 cells expressing hSK1 channels
Type: cell-based
CONDITION INFO: SK1 activation
The SC100 (Stimulating Concentration required for increasing the baseline current by 100%) values by entry
READOUT KIND: The SC100 (Stimulating Concentration required for increasing the baseline current by 100%) (µM)

In [3]: df
Out[3]:
                                   compound  measurement_unit  result_number
0  Cc1cc(Cl)ccc1OC(C)c1ccnc2nc(NC=NOC(C)C)nn12 (stereo not drawn) [Example 6]                µM           0.40
1  CON=CNc1nc2nccc(C(C)Oc3ccc(Br)cc3)n2n1 (stereo not drawn) [Example 1]                µM          0.015
2  CON=CNc1nc2nccc(C(C)Oc3ccc(Cl)cc3C)n2n1 (stereo not drawn) [Example A]                µM          0.008

---

TESTED SYSTEM: hSK1 channels (Homo sapiens)
Construct: expressed in transfected cells; host or cells: HEK293
MEASUREMENT NOTES: Whole-cell patch-clamp recording of SK current in HEK293 cells expressing hSK1 channels
Type: cell-based
CONDITION INFO: SK1 activation
Attribute: The SC100 (Stimulating Concentration required for increasing the baseline current by 100%)
READOUT KIND: The SC100 (Stimulating Concentration required for increasing the baseline current by 100%)

>>> df
                                   compound                 tested_system    result
0  CON=CNc1nc2nccc(C(C)(C)Oc3ccc(Cl)cc3C)n2n1  hSK1 channels (Homo sapiens)   0.60 µM
1  CCCON=CNc1nc2nccc(C(C)Oc3ccc(Cl)cc3C)n2n1 (centres unmarked)  hSK1 channels (Homo sapiens)  0.003 µM
2  CON=CNc1nc2nccc(C(C)Oc3ccc(Cl)cc3)n2n1 (centres unmarked)  hSK1 channels (Homo sapiens)   0.04 µM
3  CON=CNc1nc2nccc(C(C)Oc3ccc(F)cc3)n2n1 (centres unmarked)  hSK1 channels (Homo sapiens)  0.075 µM
4  CON=CNc1nc2nccc(C(C)Oc3ccc(Cl)cc3Cl)n2n1 (centres unmarked)  hSK1 channels (Homo sapiens)  0.005 µM
